- target of assay: human PXR (Homo sapiens (Human))
- Sequence (O75469 whole entry): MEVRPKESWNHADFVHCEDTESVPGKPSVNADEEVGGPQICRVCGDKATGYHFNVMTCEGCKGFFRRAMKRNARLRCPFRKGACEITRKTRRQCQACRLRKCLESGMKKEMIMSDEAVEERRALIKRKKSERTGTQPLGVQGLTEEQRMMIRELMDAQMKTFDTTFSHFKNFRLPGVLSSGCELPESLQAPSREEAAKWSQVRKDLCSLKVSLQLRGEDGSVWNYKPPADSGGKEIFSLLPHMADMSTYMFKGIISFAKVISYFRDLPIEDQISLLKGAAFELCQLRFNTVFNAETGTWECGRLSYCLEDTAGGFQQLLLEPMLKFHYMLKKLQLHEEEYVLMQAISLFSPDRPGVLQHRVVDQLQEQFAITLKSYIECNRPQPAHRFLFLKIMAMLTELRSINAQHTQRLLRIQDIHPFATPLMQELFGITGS
- assay protocol: Evaluation of activation of human pregnane X receptor (PXR), DPX2 cells
- Type: cell-based
- condition context: compound 10 μM, 48 hours, emission intensity divided by fluorescence intensity
Lab note: anything with PXR 10 μM at or over 6 counts as criterion met; the rest go in criterion not met.

The examples below pair each entry with its known result.
[[record]]
compound = "Cc1ccc(OC(F)F)cc1NC1=NC(=O)N(C)C2=NCC(c3cc(F)c(F)c(F)c3)N12 (centres unmarked)"
discrete_label = "criterion met"

[[record]]
compound = "COCc1ccc(C)c(NC2=NC(=O)N(C)C3=NCC(c4cc(F)c(F)c(F)c4)N23)c1 (centres unmarked)"
discrete_label = "criterion not met"

[[record]]
compound = "COc1nc(C)c(NC2=NC(=O)N(C)C3=NCC(c4cc(F)c(F)c(F)c4)N23)cc1F (centres unmarked)"
discrete_label = "criterion met"

[[record]]
compound = "Cc1ccc(C#N)cc1NC1=NC(=O)N(C)C2=NCC(c3cc(F)c(F)c(F)c3)N12 (centres unmarked)"
discrete_label = "criterion not met"

[[record]]
compound = "CCc1nc(OC)ccc1NC1=NC(=O)N(C)C2=NCC(c3cc(F)c(F)c(F)c3)N12 (centres unmarked)"
discrete_label = "criterion met"


Given the entry Cc1cc2c(cc1NC1=NC(=O)N(C)C3=NCC(c4cc(F)c(F)c(F)c4)N13)COC2 (centres unmarked) , answer whether its PXR 10 μM meets or surpasses 6.
criterion met

Does COCCOc1ccc(C)c(NC2=NC(=O)N(C)C3=NCC(c4cc(F)c(F)c(F)c4)N23)c1 (centres unmarked) have a reported PXR 10 μM of at least 6?
criterion not met

State whether the measured PXR 10 μM reaches 6, counting equality as reaching it, for COc1ccc(C)c(NC2=NC(=O)N(C)C3=NCC(c4cc(F)c(F)c(F)c4)N23)c1 (centres unmarked)
criterion not met

Form field: PXR 10 μM at least 6? Entry: CCc1ccc(CO)cc1NC1=NC(=O)N(C)C2=NCC(c3cc(F)c(F)c(F)c3)N12 (centres unmarked)
criterion not met

Please tell me: is the compound Cc1ccc(OCCO)cc1NC1=NC(=O)N(C)C2=NCC(c3cc(F)c(F)c(F)c3)N12 (centres unmarked) at or over 6 in terms of PXR 10 μM?
criterion not met
